# R0 5.5/7.4 per record follows
- targetOrTestSystem: T1, human serum albumin (human, UniProt P02768 25-609)
- T1 construct: Immobilised on SPR chips; also added in solution to the cell assays; also called HSA; humanSA
- protocolDescription: SPR Biacore 3000, HSA on chip, ratio of R0 at pH 5.5 to pH 7.4
assayMetric: R0 5.5/7.4

>>> observedvalue("TA-Fc-ABDEG-2H11-v15 (Fc fusion) DKTHTCPPCPAPELLGGPSVFLFPPKPKDTLYITREPEVTCVVVDVSHEDPEVKFNWYVDGVEVHNAKTKPREEQYNSTYRVVSVLTVLHQDWLNGKEYKCKVSNKALPAPIEKTISKAKGQPREPQVYTLPPSRDELTKNQVSLTCLVKGFYPSDIAVEWESNGQPENNYKTTPPVLDSDGSFFLYSKLTVDKSRWQQGNVFSCSVMHEALKFHYTQKSLSLSPGGGGGSGGGGSGGGGSGGGGSELQVVESGGGLVQAGGSLRLSCAASGRTFRSNTMGWFRQAPGKEREFVAAITWSGGTTYYADSVKGRFAISGDNAKNTVYLQMNSLKPEDTAVYYCAAEGPKWEPWNGIYHPAAFGSWGQGTQVTVSS")
370
>>> observedvalue("TA-Fc-ABDEG-2H11-v16 (Fc fusion, Scaffold as for m24) DKTHTCPPCPAPELLGGPSVFLFPPKPKDTLYITREPEVTCVVVDVSHEDPEVKFNWYVDGVEVHNAKTKPREEQYNSTYRVVSVLTVLHQDWLNGKEYKCKVSNKALPAPIEKTISKAKGQPREPQVYTLPPSRDELTKNQVSLTCLVKGFYPSDIAVEWESNGQPENNYKTTPPVLDSDGSFFLYSKLTVDKSRWQQGNVFSCSVMHEALKFHYTQKSLSLSPGGGGGSGGGGSGGGGSGGGGSELQVVESGGGLVQAGGSLRLSCAASGRTFRSNTMGWFRQAPGKEREFVAAITWSGGTTYYADSVKGRFAISGDNAKNTVYLQMNSLKPEDTAVYYCAAEGPKWEPWNGIYHPADAGSWGQGTQVTVSS")
16
>>> observedvalue("TA-Fc-ABDEG-2H11-v3 (Fc fusion) DKTHTCPPCPAPELLGGPSVFLFPPKPKDTLYITREPEVTCVVVDVSHEDPEVKFNWYVDGVEVHNAKTKPREEQYNSTYRVVSVLTVLHQDWLNGKEYKCKVSNKALPAPIEKTISKAKGQPREPQVYTLPPSRDELTKNQVSLTCLVKGFYPSDIAVEWESNGQPENNYKTTPPVLDSDGSFFLYSKLTVDKSRWQQGNVFSCSVMHEALKFHYTQKSLSLSPGGGGGSGGGGSGGGGSGGGGSELQVVESGGGLVQAGGSLRLSCAASGRTFRSNTMGWFRQAPGKEREFVAAITWSGGTTYYADSVKGRFAISGDNAKNTVYLQMNSLKPEDTAVYYCAAEGAKWEPWNGIYHPADFGSWGQGTQVTVSS")
19.9
>>> observedvalue("TA-Fc-ABDEG-2H11 (2H11 parental fused at the C-terminus of Fc-ABDEG) (Fc fusion) DKTHTCPPCPAPELLGGPSVFLFPPKPKDTLYITREPEVTCVVVDVSHEDPEVKFNWYVDGVEVHNAKTKPREEQYNSTYRVVSVLTVLHQDWLNGKEYKCKVSNKALPAPIEKTISKAKGQPREPQVYTLPPSRDELTKNQVSLTCLVKGFYPSDIAVEWESNGQPENNYKTTPPVLDSDGSFFLYSKLTVDKSRWQQGNVFSCSVMHEALKFHYTQKSLSLSPGGGGGSGGGGSGGGGSGGGGSELQVVESGGGLVQAGGSLRLSCAASGRTFRSNTMGWFRQAPGKEREFVAAITWSGGTTYYADSVKGRFAISGDNAKNTVYLQMNSLKPEDTAVYYCAAEGPKWEPWNGIYHPADFGSWGQGTQVTVSS")
3
>>> observedvalue("TA-Fc-ABDEG-2H11-v12 (Fc fusion, Scaffold as for m24) DKTHTCPPCPAPELLGGPSVFLFPPKPKDTLYITREPEVTCVVVDVSHEDPEVKFNWYVDGVEVHNAKTKPREEQYNSTYRVVSVLTVLHQDWLNGKEYKCKVSNKALPAPIEKTISKAKGQPREPQVYTLPPSRDELTKNQVSLTCLVKGFYPSDIAVEWESNGQPENNYKTTPPVLDSDGSFFLYSKLTVDKSRWQQGNVFSCSVMHEALKFHYTQKSLSLSPGGGGGSGGGGSGGGGSGGGGSELQVVESGGGLVQAGGSLRLSCAASGRTFRSNTMGWFRQAPGKEREFVAAITWSGGTTYYADSVKGRFAISGDNAKNTVYLQMNSLKPEDTAVYYCAAEGPKWEPWNGIAHPADFGSWGQGTQVTVSS")
14.9

These entries and their values trace back to patent US20250382388A1.
